- Tested on: sheep red blood cells
- test details: Hemolytic assay
- Type: cell-based
- run parameters: sheep red blood cells, 1 h, 37 °C, peptides 150 μM (Triton X-100 1%); replicate Exp.3
Where no end group is shown, it is not given here.
observable: % Hemolysis, Exp.3 (%)
// units = %; emit number, no label

Solved cases (4 shown):
>>> recorded_result("ILGKIGIKSLF [IsCT-Δ6-7]")
2.44
>>> recorded_result("ILGKIKSLF [IsCT-Δ6-9]")
1.03
>>> recorded_result("ILGKIIKSLF [IsCT-Δ6-8]")
3.45
>>> recorded_result("ILGKIWIKSLF [IsCT-Δ7-8]")
3.66

# context switch: different sequence, same % Hemolysis, Exp.3
Exam item: Notebook entry, sheep red blood cells assay: % Hemolysis, Exp.3 of ILGKIWKSLF [IsCT-Δ7-9] = ?
Marked response: 1.13

----------
- Test system: sheep red blood cells
- test details: Hemolytic assay
- Assay type: cell-based
- run parameters: sheep red blood cells, 1 h, 37 °C, peptides 150 μM (Triton X-100 1%); replicate Exp.2
Where no end group is shown, it is not given here.
observable: % Hemolysis, Exp.2 (%)
// units = %; emit number, no label

Exam item: Need % Hemolysis, Exp.2 of ILGKIKSLF [IsCT-Δ6-9] , thanks.
Marked response: 0.00

Exam item: Need % Hemolysis, Exp.2 of ILGKIWKSLF [IsCT-Δ7-9] , thanks.
Marked response: 0.00

Exam item: Need % Hemolysis, Exp.2 of ILGKIGIKSLF [IsCT-Δ6-7] , thanks.
Marked response: 0.0473

Exam item: Need % Hemolysis, Exp.2 of ILGKIWIKSLF [IsCT-Δ7-8] , thanks.
Marked response: 2.48

Exam item: Need % Hemolysis, Exp.2 of ILGKIIKSLF [IsCT-Δ6-8] , thanks.
Marked response: 0.72

----------
- Tested on: sheep red blood cells
- test details: Hemolytic assay
- Format: cell-based
- run parameters: sheep red blood cells, 1 h, 37 °C, peptides 150 μM (Triton X-100 1%); replicate Exp.1
- Procedure: A hemolytic assay was carried out according to the previously described method using commercially sourced sheep red blood cells (Professional Nanomed Company Limited, Bangkok, Thailand). […] After centrifugation at 1000× g for 5 min, 100 μL of supernatant was transferred to new 96-well plates, and the release of hemoglobin was monitored, measuring an optical density (OD) at 405 nm using a BioTek Synergy HT microplate reader. […]
Where no end group is shown, it is not given here.
observable: % Hemolysis, Exp.1 (%)
// units = %; emit number, no label

Solved cases (3 shown):
>>> recorded_result("ILGKIKSLF [IsCT-Δ6-9]")
0.38
>>> recorded_result("ILGKIWIKSLF [IsCT-Δ7-8]")
0.25
>>> recorded_result("ILGKIIKSLF [IsCT-Δ6-8]")
1.56

Exam item: Need % Hemolysis, Exp.1 of ILGKIGIKSLF [IsCT-Δ6-7] , thanks.
Marked response: 0.00

Exam item: Need % Hemolysis, Exp.1 of ILGKIWKSLF [IsCT-Δ7-9] , thanks.
Marked response: 0.18
